Target: β-lactamase TEM1 (Escherichia coli)
Construct: The β-lactamases are isolated from bacterial strains which are resistant to penicillins and cephalosporins; endogenous in cells; host or cells: E. coli 250HT21 (natural producer; French-press lysate, 100,000 g supernatant)
Sequence (P62593 24-286 limits assumed): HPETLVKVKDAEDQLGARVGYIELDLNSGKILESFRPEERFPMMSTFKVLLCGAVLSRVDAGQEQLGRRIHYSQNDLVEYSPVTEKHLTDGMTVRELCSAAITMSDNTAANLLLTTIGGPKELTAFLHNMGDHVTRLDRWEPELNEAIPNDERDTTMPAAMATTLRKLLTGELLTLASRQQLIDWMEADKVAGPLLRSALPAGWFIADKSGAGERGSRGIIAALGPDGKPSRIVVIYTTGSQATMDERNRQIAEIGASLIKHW
Test: Inhibition of isolated β-lactamase Tem-1 (Nitrocefin hydrolysis)
Type: biochemical, E.coli 250HT21
Conditions: 100 μM Nitrocefin, 50 mM sodium phosphate buffer pH7.0, 37° C.
Label 1 when IC50 < 10 nM; otherwise -1.

Problem: Threshold test, IC50 < 10 nM: O=C(OCc1ccccc1)[C@@H]1C[C@@H]2CN1C(=O)N2OS(=O)(=O)O (relative stereo)
Solution: 1

Problem: Threshold test, IC50 < 10 nM: O=C(C[C@@H]1CCN2C[C@H]1OC2=O)OC(c1ccccc1)c1ccccc1 (relative stereo)
Solution: -1

Problem: Threshold test, IC50 < 10 nM: O=C1N2CCCC(C2)N1OS(=O)(=O)c1ccc([N+](=O)[O-])cc1 (centres unmarked) [Example 19g]
Solution: -1

Problem: Threshold test, IC50 < 10 nM: O=C(O)C1CCC2CN1C(=O)O2 (centres unmarked) [Example 26b]
Solution: -1

Problem: Threshold test, IC50 < 10 nM: COC1=CC2CN(C1)C(=O)N2OS(=O)(=O)O (centres unmarked)
Solution: -1

Problem: Threshold test, IC50 < 10 nM: CN(C)c1cccc(NC(=O)[C@H]2CC[C@@H]3CN2C(=O)N3OS(=O)(=O)[O-])c1.[Na+] (relative stereo)
Solution: -1

Problem: Threshold test, IC50 < 10 nM: CS(=O)(=O)ON1C(=O)N2CCCC1C2 (centres unmarked) [Example 19f]
Solution: -1

Problem: Threshold test, IC50 < 10 nM: O=C(OCCc1ccncc1)[C@H]1CC[C@@H]2CN1C(=O)N2OS(=O)(=O)[O-].[Na+] (relative stereo)
Solution: 1
